# Measured Target: human TLR8 (Homo sapiens, UniProt Q9NR97)
# Sequence (Q9NR97 27-1041): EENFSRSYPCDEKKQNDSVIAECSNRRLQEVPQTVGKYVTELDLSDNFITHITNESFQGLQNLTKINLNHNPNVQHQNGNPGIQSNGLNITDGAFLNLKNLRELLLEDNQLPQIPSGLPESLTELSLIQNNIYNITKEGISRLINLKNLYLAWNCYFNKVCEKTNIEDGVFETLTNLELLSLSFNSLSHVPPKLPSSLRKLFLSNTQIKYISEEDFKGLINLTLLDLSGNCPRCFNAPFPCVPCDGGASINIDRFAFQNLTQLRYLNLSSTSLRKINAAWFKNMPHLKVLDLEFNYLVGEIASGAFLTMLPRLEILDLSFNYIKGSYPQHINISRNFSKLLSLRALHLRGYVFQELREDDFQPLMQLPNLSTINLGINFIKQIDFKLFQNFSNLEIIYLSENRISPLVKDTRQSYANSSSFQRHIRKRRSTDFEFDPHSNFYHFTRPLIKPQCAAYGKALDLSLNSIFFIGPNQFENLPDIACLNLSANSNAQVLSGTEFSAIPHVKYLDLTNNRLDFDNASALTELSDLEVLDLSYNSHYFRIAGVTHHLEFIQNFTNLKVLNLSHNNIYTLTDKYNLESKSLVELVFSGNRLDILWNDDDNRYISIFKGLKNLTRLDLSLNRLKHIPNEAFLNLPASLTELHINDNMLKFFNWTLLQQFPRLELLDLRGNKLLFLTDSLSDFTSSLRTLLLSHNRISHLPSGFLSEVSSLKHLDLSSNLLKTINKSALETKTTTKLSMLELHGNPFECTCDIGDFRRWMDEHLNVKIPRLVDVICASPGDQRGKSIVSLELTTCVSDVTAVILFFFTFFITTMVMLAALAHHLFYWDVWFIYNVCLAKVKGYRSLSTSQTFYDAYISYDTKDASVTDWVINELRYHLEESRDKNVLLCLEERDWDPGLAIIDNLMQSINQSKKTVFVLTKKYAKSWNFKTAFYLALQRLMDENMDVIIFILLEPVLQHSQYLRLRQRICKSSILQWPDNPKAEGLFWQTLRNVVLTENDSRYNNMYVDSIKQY
# Experiment: TLR8 inhibition reporter assay (HEK-Blue SEAP reporter, R848 stimulation)
# Settings: HEK-Blue cells overexpressing human TLR8, SEAP reporter, R848 15.9 μM, 22 hour incubation
Parameter Measured: log10(IC50) (log10 of the value in nM)
Transform log10 | Measure IC50 | Unit nM

Take a look at these entries with their results.
>>> numeric_value("Cc1c(-c2[nH]c3ccc(C4CCN(C(=O)CN(C)C)CC4)cc3c2C(C)C)cc(C#N)c(=O)n1C")
1.20
>>> numeric_value("Cc1c(-c2[nH]c3ccc(C4CCN(CC(=O)N(C)C)CC4)cc3c2C(C)C)cc(C#N)c(=O)n1C")
1.03
>>> numeric_value("Cc1c(-c2[nH]c3ccc(C4CCN(C5CCOCC5)CC4)cc3c2C(C)C)cc(C#N)c(=O)n1C")
0.15
>>> numeric_value("Cc1cc(-c2[nH]c3ccc(C4CCN(C(C)c5cnn(C)c5)CC4)cc3c2C(C)C)cn(C)c1=O (stereo not shown)")
0.66
>>> numeric_value("COCc1cc(-c2[nH]c3ccc(C4CCN(C5CCOCC5)CC4)cc3c2C(C)C)cn(C)c1=O")
1.23

In: What value of log10(IC50) has been recorded for this entry: "CC(C)c1c(-c2cc(-c3cccnc3)c(=O)n(C)c2)[nH]c2ccc(C3CCN(CC(=O)N(C)C)CC3)cc12"
Out: 0.79

In: What value of log10(IC50) has been recorded for this entry: "Cc1c(-c2[nH]c3ccc(C4CCN(C5COC5)CC4)cc3c2C(C)C)cn(C)c(=O)c1Cl"
Out: 1.23

Origin of measurements: patent US11447466B2
